Measurement Description: self-splicing fitness, log relative to wild type (ln ratio); higher = more splicing; Tetrahymena group I intron in knt gene, E. coli kanamycin selection, DiMSum; sequences stand for … in CUCUCU…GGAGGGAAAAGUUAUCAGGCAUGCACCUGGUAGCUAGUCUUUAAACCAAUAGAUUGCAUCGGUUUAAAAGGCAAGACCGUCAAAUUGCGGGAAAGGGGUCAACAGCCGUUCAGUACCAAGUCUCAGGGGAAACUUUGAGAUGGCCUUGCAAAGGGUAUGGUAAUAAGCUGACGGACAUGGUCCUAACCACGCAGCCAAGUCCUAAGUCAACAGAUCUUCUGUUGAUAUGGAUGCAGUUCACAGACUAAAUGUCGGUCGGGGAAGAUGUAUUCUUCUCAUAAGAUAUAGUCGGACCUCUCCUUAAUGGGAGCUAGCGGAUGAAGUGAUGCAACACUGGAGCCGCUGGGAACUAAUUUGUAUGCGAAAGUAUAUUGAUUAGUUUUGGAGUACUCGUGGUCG;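 also: selection with 25 µg/mL kanamycin versus none on LB agar overnight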
Cond: 30 °C
# self-splicing fitness (ln) values compiled below
Reported Endpoint: self-splicing fitness (ln)

> print(dat)
            biosequence           reported.endpoint  reported.measurement
1  CCGGAGCAAUAUUACGCGAA  self-splicing fitness (ln)                 -3.59
2  UCCUAGCAAUAUUACGGCCA  self-splicing fitness (ln)                 -3.17
3  CGAUAGCAAUAUUACGCCUA  self-splicing fitness (ln)                 -2.11
4  UUACAGCAAUAUUACGAUCC  self-splicing fitness (ln)                 -3.16
5  UUGAAGCAAUAUUACGAUUU  self-splicing fitness (ln)                 -1.58
6  CUAAAGCAAUAUUACGUUUG  self-splicing fitness (ln)                 -1.47
7  GGUUAGCAAUAUUACGUGAG  self-splicing fitness (ln)                -0.894
8  GCAUAGCAAUAUUACGUCUG  self-splicing fitness (ln)                 -1.87
